- measured-on: JNK2 (Homo sapiens, UniProt P45984)
- Sequence (P45984 whole entry): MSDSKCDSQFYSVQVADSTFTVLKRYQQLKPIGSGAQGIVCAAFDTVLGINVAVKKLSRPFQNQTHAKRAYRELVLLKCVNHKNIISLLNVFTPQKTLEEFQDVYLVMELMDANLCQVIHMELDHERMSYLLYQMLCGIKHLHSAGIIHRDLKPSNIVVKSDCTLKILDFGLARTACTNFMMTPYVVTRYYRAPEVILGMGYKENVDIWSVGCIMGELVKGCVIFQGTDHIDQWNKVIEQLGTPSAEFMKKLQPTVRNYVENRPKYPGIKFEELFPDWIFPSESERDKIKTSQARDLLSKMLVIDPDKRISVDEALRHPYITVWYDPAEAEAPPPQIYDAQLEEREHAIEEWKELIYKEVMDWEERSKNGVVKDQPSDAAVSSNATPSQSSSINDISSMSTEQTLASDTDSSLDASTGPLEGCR
measurement-type: IC50 (nM)
Field format: number, assumed nM, no unit text.

Ask: What measured IC50 goes with `O=S(=O)(NCCCNc1cc(-c2cn(-c3ccccc3)nc2-c2cccc(O)c2)ccn1)c1ccc(Cl)cc1` ?
Reply: 360

###

- System: SK-MEL-5 melanoma cell line
- test-details: NCI five-dose testing
- Assay type: cell-based
- stated-conditions: Homo sapiens, SK-MEL-5
measurement-type: pIC50
Note on units: pIC50 is unitless, being -log10 of a concentration expressed in mol/L.

Ask: Give SK-MEL-5 melanoma cell line pIC50 for CNC(=O)c1cc(Oc2ccc(NC(=O)Nc3ccc(Cl)c(C(F)(F)F)c3)cc2)ccn1 [Sorafenib, reference compound]
Reply: 5.90

Ask: Give SK-MEL-5 melanoma cell line pIC50 for `COc1cccc(-c2nn(-c3ccccc3)cc2-c2ccnc(NCCCNS(=O)(=O)c3cccc(F)c3)c2)c1`
Reply: 5.73

Ask: Give SK-MEL-5 melanoma cell line pIC50 for `O=S(=O)(NCCCNc1cc(-c2cn(-c3ccccc3)nc2-c2cccc(O)c2)ccn1)c1ccc(C(F)(F)F)cc1`
Reply: 5.80

Ask: Give SK-MEL-5 melanoma cell line pIC50 for `COc1cccc(-c2nn(-c3ccccc3)cc2-c2ccnc(NCCCNS(=O)(=O)c3ccc(C(F)(F)F)cc3)c2)c1`
Reply: 5.66

Ask: Give SK-MEL-5 melanoma cell line pIC50 for `O=S(=O)(NCCNc1cc(-c2cn(-c3ccccc3)nc2-c2cccc(O)c2)ccn1)c1ccc(C(F)(F)F)cc1`
Reply: 5.75

Ask: Give SK-MEL-5 melanoma cell line pIC50 for `O=S(=O)(NCCCNc1cc(-c2cn(-c3ccccc3)nc2-c2cccc(O)c2)ccn1)c1ccc(Br)cc1`
Reply: 5.90

Ask: Give SK-MEL-5 melanoma cell line pIC50 for `COc1cccc(-c2nn(-c3ccccc3)cc2-c2ccnc(NCCNS(=O)(=O)c3ccc(C(F)(F)F)cc3)c2)c1`
Reply: 5.76

Ask: Give SK-MEL-5 melanoma cell line pIC50 for `O=S(=O)(NCCCNc1cc(-c2cn(-c3ccccc3)nc2-c2cccc(O)c2)ccn1)c1ccc(F)cc1`
Reply: 5.51

Ask: Give SK-MEL-5 melanoma cell line pIC50 for `O=S(=O)(NCCCNc1cc(-c2cn(-c3ccccc3)nc2-c2cccc(O)c2)ccn1)c1cccc2ccccc12`
Reply: 5.82
